# Test system: MS2 coat protein
# procedureDetails: apparent KD of MS2 coat protein; designed switch direction (-1 OFF switch, 1 ON switch): 1; higher = weaker reporter binding
# runParameters: input ligand: FMN 200 uM
Below: a set of entries, each annotated with reported apparent KD of MS2 coat protein.
Form entry: value (nM) — number only.

Below, 3 sequences whose answers are already recorded.
# sequenceText, testedTarget, valueKind, reportedResult
records = [
    ("UUGAAGAAUUAAGGAUAUCGAGUCAAGAUGUUAAACAUGAGGAUCACCCAUGUGGGUUGCGGUAUCGAGAAGGUAAAUAAGAAG [Mat - Same State NG 2 - JL mod - D54] (Eterna round: R96, puzzle: Same State NG 2)", "MS2 coat protein", "apparent KD of MS2 coat protein", 44.3),
    ("AAUUGUUUCUGAGGAUAUCAGUAGUAUGCCAAUUGAGAAGGCAGUACAUGAGGAUCACCCAUGUUGUGGUUUGAUAGAAUGAUA [JR_SSNG1_Sub002] (Eterna round: R96, puzzle: Same State NG 1)", "MS2 coat protein", "apparent KD of MS2 coat protein", 170),
    ("AGUAUACAUGAGGAUCACCCAUGUCUGUAACGGACAGGAUAUGCGUUGCAUCACUGUAAUGCAGAAGGGUCCUGUA [Same State 1 - Mod of JMF's solution 1 v.2] (Eterna round: R96, puzzle: Same State 1)", "MS2 coat protein", "apparent KD of MS2 coat protein", 50.5),
]

In the following, a different sequence is considered.
Any idea what its apparent KD of MS2 coat protein is? The sequence is AGCUAUUAAUCAGGAUAUAGUGACAUGAGGAUCACCCAUGUAUUGAUGAUUAAAUGUGGUCACUACUAGAAGGGAUUACUAACA [SameState NG2 #49] (Eterna round: R96, puzzle: Same State NG 2)
37

###

# Test system: MS2 coat protein
# procedureDetails: apparent KD of MS2 coat protein; designed switch direction (-1 OFF switch, 1 ON switch): 1; higher = weaker reporter binding
# runParameters: input ligand: FMN 200 uM
apparent KD of MS2 coat protein for assorted sequences
Respond numerically; units are nM and should not be typed.

Solved cases below.
# sequenceText, apparent KD of MS2 coat protein (nM)
data = [
    ("CUGAGAUGUCAAGGAUAUCACGUCGAUUAGACGUGAGAAGGUGAUCAGUACAUGAGGAUCACCCAUGUGUUACAUGGAACUCAG [Brourd's SSNG1/1-A2 mod 9] (Eterna round: R96, puzzle: Same State NG 1)", 868),
    ("GCGAGGAUAUGCAGAGGAUCACCCUGUAGAAGGCGCAAAAGCGAGGAUAUGCAGAGGAUCACCCUGUAGAAGGCGCACUACUCU [pwkr ssNG3 DX 2xF5 +2xFMN.4] (Eterna round: R96, puzzle: Same State NG 3)", 153),
    ("GGCAAUAUCACAGGAUAUUGGAAAGGAAGUGUACAAGAAGGGUGAUAGGGCCUCAGCAACAUGAGGAUCACCCAUGUACUGAGC [PowerStrip SSNG 1.10] (Eterna round: R96, puzzle: Same State NG 1)", 62.6),
]

What measured apparent KD of MS2 coat protein goes with AAAAAACAUGAGGAUCACCCAUGUCGAAAGACAUGAGGAUAUGUGUGGAAACCAUACUAUACAGAAGGCAUAAAAA [SS1 - 1009] (Eterna round: R96, puzzle: Same State 1) ?
60.6

What value of apparent KD of MS2 coat protein has been recorded for this entry: AGCUAGUACCAAGGAUAUACGAACAUGAGGAUCACCCAUGUAUACAUGGUUUAAUGAGACUACAUGUAGAAGGUGGUACUAGCA [SameState NG2 #12] (Eterna round: R96, puzzle: Same State NG 2)
387
